# Tested target: Ku70/Ku80 heterodimer, wild type (human, UniProt P12956;P13010 1-609;1-732)
# Sequence (P12956 whole entry, chain 1 of 2): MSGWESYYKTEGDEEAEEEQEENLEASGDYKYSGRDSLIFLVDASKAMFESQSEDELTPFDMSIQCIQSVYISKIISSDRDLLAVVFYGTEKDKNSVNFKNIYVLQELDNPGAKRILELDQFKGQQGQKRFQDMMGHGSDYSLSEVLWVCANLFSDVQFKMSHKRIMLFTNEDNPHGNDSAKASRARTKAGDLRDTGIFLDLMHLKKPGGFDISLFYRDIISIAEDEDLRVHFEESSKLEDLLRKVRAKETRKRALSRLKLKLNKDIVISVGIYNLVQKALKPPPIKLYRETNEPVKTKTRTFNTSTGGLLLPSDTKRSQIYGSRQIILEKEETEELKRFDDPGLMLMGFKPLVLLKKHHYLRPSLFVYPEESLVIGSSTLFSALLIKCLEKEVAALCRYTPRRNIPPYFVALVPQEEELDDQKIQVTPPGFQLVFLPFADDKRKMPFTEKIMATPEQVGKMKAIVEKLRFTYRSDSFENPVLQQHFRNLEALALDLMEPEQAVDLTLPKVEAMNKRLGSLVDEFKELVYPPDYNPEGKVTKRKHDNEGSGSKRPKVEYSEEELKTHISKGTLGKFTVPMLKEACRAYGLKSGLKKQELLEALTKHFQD
# Sequence (P13010 whole entry, chain 2 of 2): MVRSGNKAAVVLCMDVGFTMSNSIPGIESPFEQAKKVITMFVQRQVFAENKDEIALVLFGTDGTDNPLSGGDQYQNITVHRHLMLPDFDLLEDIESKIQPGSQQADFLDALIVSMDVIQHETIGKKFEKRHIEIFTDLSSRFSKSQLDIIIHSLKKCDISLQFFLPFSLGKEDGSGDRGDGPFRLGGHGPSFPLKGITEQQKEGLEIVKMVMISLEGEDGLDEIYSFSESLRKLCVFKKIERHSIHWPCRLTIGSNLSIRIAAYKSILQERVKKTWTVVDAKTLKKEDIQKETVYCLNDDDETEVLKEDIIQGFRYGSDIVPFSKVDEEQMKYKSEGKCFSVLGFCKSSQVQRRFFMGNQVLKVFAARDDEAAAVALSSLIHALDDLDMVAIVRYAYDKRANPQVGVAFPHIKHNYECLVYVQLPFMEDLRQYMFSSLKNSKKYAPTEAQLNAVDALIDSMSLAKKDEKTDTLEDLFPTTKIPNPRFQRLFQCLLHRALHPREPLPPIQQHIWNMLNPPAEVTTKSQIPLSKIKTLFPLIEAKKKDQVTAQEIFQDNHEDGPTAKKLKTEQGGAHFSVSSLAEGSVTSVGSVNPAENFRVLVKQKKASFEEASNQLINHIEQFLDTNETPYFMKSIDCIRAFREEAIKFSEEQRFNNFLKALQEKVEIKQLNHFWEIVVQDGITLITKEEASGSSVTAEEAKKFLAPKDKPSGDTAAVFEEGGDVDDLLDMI
# Protocol details: fluorescence polarization; reduced (control), 1 mM DTT, 10 mM Mg2+, probably nM; 50 mM Tris-HCl pH 7.8, 10 mM MgCl2, 50 mM NaCl (FP: plus 1 mM DTT, 0.5 ml; EMSA: 20 μl, 500 fmol DNA); oxidation 2 mM diamide 15 min on ice, re-reduction 5 mM DTT 15 min on ice; binding temperature not stated
# Conditions used: protein: recombinant; tags: His6 on Ku70; copies: 1;1; blunt
Experimental endpoint: Kd (nM)
Give the value, in units of nM, as a plain number.

Quick check: Kd of 30-bp duplex 30A/30C, fluorescein (polarization) (dsDNA) DNA 1: CCCCTATCCTTTCCGCGTCCTTACTTCCCC DNA 2: GGGGAAGTAAGGACGCGGAAAGGATAGGGG ?
25.8
